- Assayed Target: T1, 4H2274-AA
- T1 chain: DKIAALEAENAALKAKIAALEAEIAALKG
- Assay Name: two-hybrid library CCmax;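 note: natural log of median RNA to DNA barcode read ratio; higher means stronger binding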
- Experimental Conditions: mean of both orientations
Measure Name: interaction score

Look over these answered cases.
Query: Hello, please tell me recorded interaction score for this one: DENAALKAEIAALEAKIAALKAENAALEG [4H1579-AA]
Reply: -1.24

Query: Hello, please tell me recorded interaction score for this one: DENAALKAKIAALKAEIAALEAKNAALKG [4H1864-AA]
Reply: -1.75

A: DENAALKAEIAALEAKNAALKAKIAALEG [4H1597-AA]
B: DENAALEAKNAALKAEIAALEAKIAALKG [4H1478-AA]
Query: Between A and B , whose measured interaction score reads higher? Give the label of your selection.
Reply: B
